test: qHTS of pediatric cancer cell lines to identify multiple opportunities for drug repurposing: Confirmatory screen for Rh18 cells (AID 1347125);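 also: cells exposed to compound for 48 h; nearly all actives have a fitted effect of over 55% in size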
conditions: Rh18 rhabdomyosarcoma cells, viability; series mostly up to 45.9 µM
Results filed as inconclusive are left out. The source made the active and inactive calls. Calls follow the shape of the dose curve; as a rule, active = well fitted cell-killing curve with a large enough effect; inconclusive = small, poorly fitted or top-dose-only effect, or effect the other way; inactive = flat fitted curve, though single readings scatter.
Lab note: assign the record to one of active, inactive

Example entries and their recorded answers appear below.
COC(=O)C1=CCCN(C)C1	inactive
CCCCCCCCCCCC[N+](C)(C)CCOc1ccccc1	active
CC[n+]1c(-c2ccccc2)c2cc(N)ccc2c2ccc(N)cc21	active
Cc1ccc([N+](=O)[O-])[c]2c1[O][Hg]2	active
CC1Sc2c(C(=O)O)c(=O)c3cc(F)c(N4CCNCC4)cc3n21 (stereo unspecified)	inactive

Please examine the following record next.
INPUT: GET /call?item= C[C@@H]1O[C@@H](O[C@@H]2C=C3CC[C@@H]4[C@H](CC[C@]5(C)[C@@H](c6ccc(=O)oc6)CC[C@]45O)[C@@]3(C)CC2)[C@H](O)[C@H](O)[C@H]1O returns the recorded outcome of this test.
OUTPUT: active
